Data provenance is paper doi:10.1101/2020.07.24.219071v1.

measuredTarget: Hematopoietic prostaglandin D synthase (HPGDS) (Homo sapiens)
Sequence (O60760 whole entry): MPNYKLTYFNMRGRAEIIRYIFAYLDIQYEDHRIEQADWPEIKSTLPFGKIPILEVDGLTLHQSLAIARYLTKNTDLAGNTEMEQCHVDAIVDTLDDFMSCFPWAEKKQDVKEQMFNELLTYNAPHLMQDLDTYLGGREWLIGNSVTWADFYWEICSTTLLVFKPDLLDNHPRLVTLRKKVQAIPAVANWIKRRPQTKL
measuredMetric: pKd
Conceptually, pKd converts a concentration in mol/L into minus its log10.

*Q* Please tell me: pKd of C[S+]([O-])c1ccc(-c2nc(-c3ccncc3)c(-c3ccc(F)cc3)[nH]2)cc1 (stereo not shown) , system Hematopoietic prostaglandin D synthase (HPGDS) (Homo sapiens)?
*A* 4.51

----------
Target sequence: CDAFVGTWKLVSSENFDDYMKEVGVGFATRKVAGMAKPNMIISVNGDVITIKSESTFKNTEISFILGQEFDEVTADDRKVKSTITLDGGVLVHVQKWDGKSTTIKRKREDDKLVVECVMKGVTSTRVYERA
pKd: −log10 of the molar value.
measuredMetric: pKd

*Q* # pKd lookup, item C[S+]([O-])c1ccc(-c2nc(-c3ccncc3)c(-c3ccc(F)cc3)[nH]2)cc1 (stereo not shown)
*A* < 3.30

----------
measuredTarget: Nicotinamide/nicotinic acid mononucleotide adenylyltransferase 1 (NMNAT1) (Homo sapiens, UniProt Q9HAN9)
Sequence (Q9HAN9 whole entry): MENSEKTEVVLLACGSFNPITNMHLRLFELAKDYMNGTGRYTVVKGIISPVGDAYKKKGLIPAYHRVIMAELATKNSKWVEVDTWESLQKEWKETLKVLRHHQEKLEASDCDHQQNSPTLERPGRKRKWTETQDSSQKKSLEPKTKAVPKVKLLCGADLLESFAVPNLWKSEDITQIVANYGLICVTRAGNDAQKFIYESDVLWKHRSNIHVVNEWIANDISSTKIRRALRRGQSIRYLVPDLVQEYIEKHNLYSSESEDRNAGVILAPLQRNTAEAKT
assaySummary: MicroScale Thermophoresis
measuredMetric: Kd

*Q* # Kd lookup, item C[S+]([O-])c1ccc(-c2nc(-c3ccncc3)c(-c3ccc(F)cc3)[nH]2)cc1 (stereo not shown)
*A* > 500 µM

----------
measuredTarget: Glutamate receptor 2 (GRIA2) (Homo sapiens)
Sequence (P42262 25-543 limits assumed): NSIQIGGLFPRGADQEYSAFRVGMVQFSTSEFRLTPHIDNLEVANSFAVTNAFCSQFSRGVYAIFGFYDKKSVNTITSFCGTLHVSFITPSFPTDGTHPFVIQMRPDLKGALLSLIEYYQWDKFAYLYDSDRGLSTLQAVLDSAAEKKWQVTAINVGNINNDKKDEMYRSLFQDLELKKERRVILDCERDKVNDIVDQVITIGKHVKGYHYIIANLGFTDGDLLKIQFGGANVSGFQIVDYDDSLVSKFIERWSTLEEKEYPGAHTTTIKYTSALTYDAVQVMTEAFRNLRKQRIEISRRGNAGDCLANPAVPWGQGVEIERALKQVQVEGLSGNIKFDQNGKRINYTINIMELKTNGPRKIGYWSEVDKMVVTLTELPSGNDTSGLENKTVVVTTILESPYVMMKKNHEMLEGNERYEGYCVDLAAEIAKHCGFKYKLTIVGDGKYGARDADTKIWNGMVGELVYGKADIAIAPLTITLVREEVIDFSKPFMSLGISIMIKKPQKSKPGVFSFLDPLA
measuredMetric: Kd

*Q* # Kd lookup, item C[S+]([O-])c1ccc(-c2nc(-c3ccncc3)c(-c3ccc(F)cc3)[nH]2)cc1 (stereo not shown)
*A* > 500 µM
